assay: Stability of trans-cyclooctene derivatives; type: physicochemical; conditions: PBS buffer, 20° C., in the dark, estimation
Below, each entry is listed with its recorded half-life at 83 µM.

[
  {
    "compound": "O=C1N[C@H]2CC/C=C/CC[C@H]2N1",
    "half-life at 83 µM": "> 72 h"
  },
  {
    "compound": "O=C(O)C1C2CC/C=C/CCC21 (stereo not drawn)",
    "half-life at 83 µM": "> 72 h"
  }
]

Now turn to the next compound.
q: Can you look up the measured half-life at 83 µM of O=C(O)CN1C(=O)C2CC/C=C/CCC21 (stereo not drawn) for me?
a: ~24 h
